System: ALOMY
experimentalProtocol: Post-emergence herbicidal action against ALOMY
Format: in vivo, Alopecurus myosuroides
testSettings: dosage 20 g/ha, visual assessment about 3 weeks after treatment vs untreated controls
Each record here notes measured Post-emergence action against ALOMY in %.
Only the number, expressed in %, is required.

Previously resolved entries follow.
compound	measureUnit	reportedValue
CCn1nnnc1NC(=O)c1ccc(C(F)(F)F)c(C(=O)NCC(F)F)c1Cl	%	80
CCn1nnnc1NC(=O)c1ccc(Br)c(C(=O)NCC2CC2)c1Cl	%	90
Cn1nnnc1NC(=O)c1ccc(Br)c(C(=O)NCC(F)F)c1Cl	%	100
CCc1c(C(=O)Nc2nnnn2CC)ccc(C(F)(F)F)c1C(=O)NCC(F)F	%	80
CCn1nnnc1NC(=O)c1ccc(C(F)F)c(C(=O)NC2CC2)c1SC	%	90
CCn1nnnc1NC(=O)c1ccc(C(F)(F)F)c(C(=O)NC2CCC2)c1C	%	100
CCNC(=O)c1c(C(F)F)ccc(C(=O)Nc2nnco2)c1Cl	%	80
Cc1nnc(NC(=O)c2ccc(Br)c(C(=O)NCC(F)F)c2Cl)o1	%	80
CCn1nnnc1NC(=O)c1ccc(Br)c(C(=O)NCC(F)(F)F)c1Cl	%	90
CC(NC(=O)c1c(Br)ccc(C(=O)Nc2nnnn2C)c1Cl)C1CC1 (stereo not drawn)	%	90

Reported Post-emergence action against ALOMY in %, compound `Cc1c(C(=O)Nc2nnnn2C)ccc(C(F)F)c1C(=O)NCC1CC1` : ____
90

Queued: `CSc1c(C(=O)Nc2nnnn2C)ccc(C(F)F)c1C(=O)NCC(F)F`
90

Queued: CC(NC(=O)c1c(C(F)(F)F)ccc(C(=O)Nc2nnnn2C)c1Cl)C1CC1 (stereo not drawn)
90

Queued: `CCn1nnnc1NC(=O)c1ccc(C(F)F)c(C(=O)NC2CC2)c1OC`
80

Queued: `COCCNC(=O)c1c(C(F)(F)F)ccc(C(=O)Nc2nnnn2C)c1C`
90

Queued: `COCCNC(=O)c1c(C(F)F)ccc(C(=O)Nc2nnnn2C)c1C`
80

Queued: `CCn1nnnc1NC(=O)c1ccc(C(F)(F)F)c(C(=O)NCC2CC2)c1SC`
90

Queued: `CCn1nnnc1NC(=O)c1ccc(Br)c(C(=O)NC(C)C)c1Cl`
90

###

Test system: DIGSA
experimentalProtocol: Post-emergence herbicidal action against DIGSA
Assay type: in vivo, Digitaria sanguinalis
testSettings: Digitaria sanguinalis, 504 h, 5 g/ha
Method: Seeds of monocotyledonous and dicotyledonous weed and crop plants are laid out in sandy loam soil in wood-fiber pots, covered with soil and cultivated in a greenhouse under good growth conditions. 2 to 3 weeks after sowing, the test plants are treated at the one-leaf stage. […]
measuredQuantity: pest or weed control at 5 g/ha (%)
Only the number, expressed in %, is required.

compoundStructure	targetOfAssay	reportedValue
Cc1c(C(=O)Nc2nnnn2C)ccc(C(F)F)c1C(=O)NC1CC1	DIGSA	80
Cn1nnnc1NC(=O)c1ccc(Br)c(C(=O)NC2CC2)c1Cl	DIGSA	90
CCNC(=O)c1c(C(F)(F)C(F)(F)F)ccc(C(=O)Nc2nnnn2C)c1Cl	DIGSA	90

Reported pest or weed control at 5 g/ha, molecule `CCNC(=O)c1c(C(F)(F)F)ccc(C(=O)Nc2nnnn2C)c1Br` : ____
80

Queued: `Cn1nnnc1NC(=O)c1ccc(C(F)(F)F)c(C(=O)NCC(F)(F)F)c1Cl`
90

###

Each record here notes measured Post-emergence action against VERPE in %.
Test system: VERPE
experimentalProtocol: Post-emergence herbicidal action against VERPE
Type: in vivo, Veronica persica
testSettings: 20 g/ha
Only the number, expressed in %, is required.

# get_value(readout= Post-emergence action against VERPE in %, system= VERPE) for CCn1nnnc1NC(=O)c1ccc(C(F)(F)F)c(C(=O)NC2CCC2)c1Cl [Example 2-146]
80

Queued: CNC(=O)c1c(C(F)F)ccc(C(=O)Nc2nnco2)c1Cl [Example 5-122]
80

Queued: CCNC(=O)c1c(C(F)(F)F)ccc(C(=O)Nc2nnco2)c1SC [Example 5-59]
80

Queued: CCNC(=O)c1c(C(F)(F)F)ccc(C(=O)Nc2nnco2)c1Cl [Example 5-117]
80

Queued: CCc1c(C(=O)Nc2nnnn2CC)ccc(C(F)F)c1C(=O)NC [Example 2-277]
90

###

Test system: ECHCG
experimentalProtocol: Post-emergence herbicidal action against ECHCG
Assay type: in vivo, Echinochloa crus-galli
testSettings: dosage 20 g/ha
Each record here notes measured Post-emergence action against ECHCG in %.
Only the number, expressed in %, is required.

Previously resolved entries follow.
molecule	reportedValue
CCn1nnnc1NC(=O)c1ccc(C(F)(F)F)c(C(=O)NC(C)C2CC2)c1Br (centres unmarked)	80
CCc1c(C(=O)Nc2nnnn2CC)ccc(C(F)F)c1C(=O)NC	100
CCNC(=O)c1c(C(F)F)ccc(C(=O)Nc2nnnn2CC)c1OC	80
Cc1nnc(NC(=O)c2ccc(C(F)F)c(C(=O)NC(C)C)c2Cl)o1	90

# get_value(readout= Post-emergence action against ECHCG in %, system= ECHCG) for `CCn1nnnc1NC(=O)c1ccc(C(F)F)c(C(=O)NC)c1Br`
100

###

System: AVEFA
experimentalProtocol: Pre-emergence herbicidal action against AVEFA
Assay type: in vivo, Avena fatua
testSettings: 80 g/ha, pre-emergence
measuredQuantity: Pre-emergence action against AVEFA in % (%)
Only the number, expressed in %, is required.

molecule	targetOfAssay	reportedValue
CNC(=O)c1c(C(F)F)ccc(C(=O)Nc2nnco2)c1SC	AVEFA	80
Cn1nnnc1NC(=O)c1ccc(C(F)F)c(C(=O)NCC(F)F)c1Br	AVEFA	90
CCCn1nnnc1NC(=O)c1ccc(C(F)(F)F)c(C(=O)NC2CC2)c1C	AVEFA	90
CCc1c(C(=O)Nc2nnnn2C)ccc(C(F)(F)F)c1C(=O)NCC1CC1	AVEFA	90

Reported Pre-emergence action against AVEFA in %, molecule CSc1c(C(=O)Nc2nnnn2C)ccc(C(F)(F)F)c1C(=O)NC(C)C1CC1 (centres unmarked) : ____
80

###

Each record here notes measured pest or weed control at 20 g/ha.
Tested on: ABUTH
experimentalProtocol: Pre-emergence herbicidal action against ABUTH
Format: in vivo, Abutilon theophrasti
testSettings: Abutilon theophrasti, 504 h, dosage 20 g/ha, scored visually after 3 weeks vs untreated controls, 100% = plants have died, 0% = like control plants, read-out: Pre-emergence action against ABUTH (herbicidal activity in percent)
Only the number, expressed in %, is required.

Previously resolved entries follow.
compound	measureUnit	pest or weed control at 20 g/ha
CCCNC(=O)c1c(C(F)(F)F)ccc(C(=O)Nc2nnnn2C)c1Cl [Example 1-136]	%	90
CCn1nnnc1NC(=O)c1ccc(C(F)F)c(C(=O)NC(C)C)c1C [Example 2-345]	%	90
Cn1nnnc1NC(=O)c1ccc(Cl)c(C(=O)NC2CC2)c1Cl [Example 1-173]	%	90
CCNC(=O)c1c(Br)ccc(C(=O)Nc2nnnn2C)c1Cl [Example 1-178]	%	90
CNC(=O)c1c(C(F)F)ccc(C(=O)Nc2nnnn2C)c1C [Example 1-44]	%	100
CCc1c(C(=O)Nc2nnnn2C)ccc(C(F)F)c1C(=O)NC [Example 1-277]	%	90

Reported pest or weed control at 20 g/ha, compound CCNC(=O)c1c(C(F)F)ccc(C(=O)Nc2nnnn2C)c1C1CC1 [Example 1-305] : ____
100

Queued: CCc1c(C(=O)Nc2nnnn2CC)ccc(C(F)F)c1C(=O)NC1CC1 [Example 2-279]
80

Queued: CC(C)NC(=O)c1c(C(F)F)ccc(C(=O)Nc2nnnn2C)c1Cl [Example 1-155]
100

###

Test system: AVEFA
experimentalProtocol: Post-emergence herbicidal action against AVEFA
Type: in vivo, Avena fatua
testSettings: 20 g/ha, visual assessment about 3 weeks after treatment, 100% = plants have died, 0% = like control plants
Each record here notes measured Post-emergence action at 20 g/ha against AVEFA in %.
Only the number, expressed in %, is required.

Previously resolved entries follow.
compound	reportedValue
CCn1nnnc1NC(=O)c1ccc(C(F)(F)F)c(C(=O)NCC2CC2)c1SC [Example 2-84]	100
Cc1c(C(=O)Nc2nnnn2C)ccc(C(F)(F)F)c1C(=O)NCC(F)F [Example 1-30]	80
CSc1c(C(=O)Nc2nnnn2C)ccc(C(F)F)c1C(=O)NCC(F)F [Example 1-92]	90

Reported Post-emergence action at 20 g/ha against AVEFA in %, compound Cn1nnnc1NC(=O)c1ccc(C(F)(F)F)c(C(=O)NCC(F)F)c1C1CC1 [Example 1-291] : ____
80

Queued: CCn1nnnc1NC(=O)c1ccc(C(F)F)c(C(=O)NCC(F)F)c1SC [Example 2-92]
80

Queued: CCn1nnnc1NC(=O)c1ccc(C(F)F)c(C(=O)NC)c1C [Example 2-44]
80

Queued: CCNC(=O)c1c(C(F)(F)F)ccc(C(=O)Nc2nnnn2CC)c1CC [Example 2-272]
80

Queued: CCn1nnnc1NC(=O)c1ccc(C(F)F)c(C(=O)NC)c1SC [Example 2-87]
80

Queued: Cc1c(C(=O)Nc2nnnn2C)ccc(C(F)F)c1C(=O)NCC(F)F [Example 1-49]
80

Queued: CNC(=O)c1c(C(F)F)ccc(C(=O)Nc2nnco2)c1Cl [Example 5-122]
80

Queued: CCn1nnnc1NC(=O)c1ccc(C(F)F)c(C(=O)NC(C)C2CC2)c1SC (stereo not shown) [Example 2-351]
80

Queued: CCn1nnnc1NC(=O)c1ccc(C(F)(F)F)c(C(=O)NC)c1C [Example 2-25]
100

Queued: CSc1c(C(=O)Nc2nnnn2C)ccc(C(F)(F)F)c1C(=O)NC(C)C1CC1 (stereo not shown) [Example 1-352]
80
